tested on: CD2F1 mice, L1210 leukemia ip, survival T/C; assay: NCI In Vivo Anticancer Drug Screen. Data for tumor model L1210 Leukemia (intraperitoneal) in CD2F1 (CDF1) mice; conditions: endpoint: mean survival time; dose: 100.0 mg/kg/injection; schedule: Q01DX009 (ip); vehicle: other; higher = longer survival
Toxic doses and inconclusive results are not listed.

| compound | T/C |
| --- | --- |
| CC(C)(CO)c1ccc(C(c2ccccc2)c2ccccc2)cc1 | 101 % of control |
| COc1ccc(OC)c2c1CCC(=O)C2 | 107 % of control |
| CC(=O)OCC1(OC2OC(CNC(=O)N(C)N=O)C(OC(C)=O)C(OC(C)=O)C2OC(C)=O)OC(CNC(=O)N(C)N=O)C(OC(C)=O)C1OC(C)=O (stereo not drawn) | 105 % of control |

---

system: CD2F1 mice, L1210 leukemia ip, survival T/C; assay: NCI In Vivo Anticancer Drug Screen. Data for tumor model L1210 Leukemia (intraperitoneal) in CD2F1 (CDF1) mice; conditions: endpoint: mean survival time; dose: 200.0 mg/kg/injection; schedule: Q04DX003 (ip); vehicle: saline with Tween-80; higher = longer survival
Inconclusive results and toxic doses are left out.

| compound | T/C |
| --- | --- |
| O=C(Nc1ccc2c3c(cccc13)C=C2)c1ccccc1 | 93 % of control |
| CSc1ccc(OC(=O)Nc2ccccc2F)cc1 | 112 % of control |
| CC1=NN(c2ccc(S(=O)(=O)O)cc2)C(=O)C1 | 104 % of control |
| CCOC(=O)N1C2c3ccccc3C(c3ccccc32)N1C(=O)OCC | 98 % of control |
| CC(Nc1ccccc1C(=O)O)C(=O)O (stereo unspecified) | 104 % of control |
| Cc1ccc2[nH]c(=O)oc(=O)c2c1 | 98 % of control |
| BrC1=CC2C3C=CC(c4ccccc43)C12 (stereo unspecified) | 95 % of control |
| C1COC2(CCC3C2C2CCC4(OCCO4)C32)O1 (stereo unspecified) | 101 % of control |
| S=C(Nc1ccccc1)Nc1ccc(NC(=S)Nc2ccccc2)cc1 | 92 % of control |
| COc1cc([N+](=O)[O-])ccc1NC(=O)N1CCCC(C)C1 (stereo unspecified) | 103 % of control |
| COC(=O)C1C(C(=O)OC)C2C3C4C1C1C2C1C43 (stereo unspecified) | 102 % of control |

---

tested on: CD2F1 mice, L1210 leukemia ip, survival T/C; assay: NCI In Vivo Anticancer Drug Screen. Data for tumor model L1210 Leukemia (intraperitoneal) in CD2F1 (CDF1) mice; conditions: endpoint: mean survival time; dose: 100.0 mg/kg/injection; schedule: Q01DX009 (ip); vehicle: saline; higher = longer survival
Inconclusive results and toxic doses are left out.

| compound | T/C |
| --- | --- |
| O=C(O)Cc1cccnc1 | 98 % of control |
| CC(C)(C)[N+](=O)[O-] | 93 % of control |
| C=C[Si](C)(C=C)C=C | 95 % of control |
| CCN(CC)CCOC(=O)Cc1cccc2c(=O)cc(-c3ccccc3)oc12 | 96 % of control |
| COc1ccc(CCN)cc1OC | 94 % of control |
| C=C(C)CC#N | 95 % of control |
| OC1OCCOC1O (configuration not stated) | 114 % of control |
